Molecular target: T1, extracellular tau in the form of paired helical filaments (ePHF tau) (UniProt P10636-8 1-441, limits assumed)
T1 construct: Aggregated, hyperphosphorylated tau preparation; not a single defined polypeptide
T1 sequence (P10636 other isoform, or with tags, fused parts or gaps limits assumed): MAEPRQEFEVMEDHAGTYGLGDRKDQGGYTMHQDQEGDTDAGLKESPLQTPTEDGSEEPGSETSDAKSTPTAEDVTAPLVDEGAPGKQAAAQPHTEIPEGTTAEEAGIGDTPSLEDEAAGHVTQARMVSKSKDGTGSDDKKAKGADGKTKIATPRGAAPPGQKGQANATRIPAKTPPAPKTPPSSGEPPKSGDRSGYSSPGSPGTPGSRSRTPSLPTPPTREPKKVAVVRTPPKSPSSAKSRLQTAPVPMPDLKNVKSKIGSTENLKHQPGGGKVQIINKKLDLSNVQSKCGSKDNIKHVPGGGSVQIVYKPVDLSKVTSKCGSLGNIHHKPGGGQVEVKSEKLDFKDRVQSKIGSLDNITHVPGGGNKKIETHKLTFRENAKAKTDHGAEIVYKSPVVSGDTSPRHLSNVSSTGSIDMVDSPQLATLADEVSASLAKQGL
Assay: ePHF tau ELISA, ePHF coated; antibody at 6.2 ng/ml; anti-mouse-HRP
measured.property: OD450 (OD450)
Give the quantity in OD450, number only.

Dear colleague, I am looking for the recorded OD450 of the following binder: anti-tau antibody MC1 expressed from viral genome construct MC1HF.F2AL (TAU_ITR72; SEQ ID NO: 2061) (antibody, V domains shown) VH: QVQLQQSGAELMKPGASVKISCKATGYTFSNYWIEWVKQRPGHGLEWIGEILPGSDSIKYNENFKGKATFTADTSSNTAYMQLSSLTSEDSAVYYCARRGNYPDYWGQGTTLTVSS VL: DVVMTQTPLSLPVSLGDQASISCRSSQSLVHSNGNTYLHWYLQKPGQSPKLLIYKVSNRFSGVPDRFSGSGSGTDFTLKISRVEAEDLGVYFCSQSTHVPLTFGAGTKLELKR
0.2

Dear colleague, I am looking for the recorded OD450 of the following binder: anti-tau antibody MC1 expressed from viral genome construct MC1LIRESH (TAU_ITR80; SEQ ID NO: 2069) (antibody, mouse IgG1, kappa, V domains shown) VH: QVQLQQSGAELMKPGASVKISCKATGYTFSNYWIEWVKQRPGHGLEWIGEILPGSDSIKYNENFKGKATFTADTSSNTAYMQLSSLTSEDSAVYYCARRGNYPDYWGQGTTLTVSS VL: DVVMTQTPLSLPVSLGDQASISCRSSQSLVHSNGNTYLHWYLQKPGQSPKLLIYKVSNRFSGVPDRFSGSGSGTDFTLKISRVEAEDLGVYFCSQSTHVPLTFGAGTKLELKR
0.1
